# System: HEK-293T
# Assay notes: Multiplex assay against HEK293T
# Format: toxicity, cell-based
# Condition parameters: human, 24 h, 10 µM, compound concentration 10 uM, replicate 2
Classes by Population Mitochondria Different-Phenotype (%): low-valued: < 60%; mid-valued: ≥ 60% and < 80%; high-valued: ≥ 80%

Compound | Assigned class
Cc1cc(NC(=O)NCCN2CCC(O)(Cc3ccccc3)CC2)c2ccccc2n1 [PALOSURAN] | mid-valued
COc1ccc2[nH]c(I)c(CCNC(C)=O)c2c1 [IODOMELATONIN] | low-valued
Cc1cc(-c2ccc3c(c2)CC[C@H]3N2CC3(CCN(C(=O)Cc4cn5cc(C)sc5n4)CC3)C2)ncn1 [PF-5190457] | low-valued
OCCCNc1cc(-c2ccnc(Nc3cccc(Cl)c3)n2)ccn1 | high-valued
C[C@@H]1CC(=O)Nc2cccc(-c3ccc4c(c3)c(-c3cnn(C)c3)nn4C)c2N1 | mid-valued
COc1cc2nc(N3CCN(C(=O)COc4c(OC)cccc4C(C)C)CC3)nc(N)c2cc1OC.Cl.Cl | mid-valued
COc1cc(OC2CCN(C(C)=O)CC2)ccc1C(=O)N1CCC(N2C(=O)OCc3ccccc32)CC1 | low-valued
CCn1c(-c2nc3cc(C(=O)N4CCCC(N)C4)ccc3n2C)cc2ccccc21.Cl (centres undefined) | high-valued

All values here come from ChEMBL document CHEMBL5058577.
